Value source: a collection of fitness landscapes (doi:10.1016/j.celrep.2020.107928)

B1: Caulobacter ParB omega fusion; a variant is named by its letters at X, in order, B8GW30 (parent)
chain: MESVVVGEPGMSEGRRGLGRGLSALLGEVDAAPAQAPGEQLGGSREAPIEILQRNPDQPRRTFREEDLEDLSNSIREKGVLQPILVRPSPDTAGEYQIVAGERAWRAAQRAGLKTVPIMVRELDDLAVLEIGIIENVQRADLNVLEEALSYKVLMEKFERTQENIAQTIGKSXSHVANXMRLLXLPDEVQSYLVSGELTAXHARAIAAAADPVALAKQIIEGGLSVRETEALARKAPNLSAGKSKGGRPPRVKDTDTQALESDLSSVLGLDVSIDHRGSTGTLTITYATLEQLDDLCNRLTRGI

# Variants of: B1
# assayMethodText: one-hybrid fitness for binding parS DNA (scaled: cognate 1, non-cognate 0); higher = stronger binding
# runConditions: with parS DNA site
In all, about 81,000 sequences were measured (“one-hybrid fitness for binding parS DNA”: median about -0.17, highest 2% from about 0.51 on). The sample as a whole holds a higher share of the highest values than the screen did.
Quick reference: one-hybrid fitness for binding parS DNA of the listed items.
endpointName: one-hybrid fitness for binding parS DNA

[[record]]
mutationspec = "DGKG"
result = "≤ 0.2"

[[record]]
mutationspec = "RMSG"
result = 1.02

[[record]]
mutationspec = "RNMN"
result = 0.299

[[record]]
mutationspec = "RKSY"
result = 0.366

[[record]]
mutationspec = "DVGA"
result = "≤ 0.2"

[[record]]
mutationspec = "LACS"
result = "≤ 0.2"

[[record]]
mutationspec = "YNCT"
result = "≤ 0.2"

[[record]]
mutationspec = "EHHI"
result = "≤ 0.2"

[[record]]
mutationspec = "RFLN"
result = 0.415

[[record]]
mutationspec = "RLSQ"
result = "≤ 0.2"

[[record]]
mutationspec = "SGES"
result = "≤ 0.2"

[[record]]
mutationspec = "QVRQ"
result = "≤ 0.2"

[[record]]
mutationspec = "KQRG"
result = "≤ 0.2"

[[record]]
mutationspec = "QTKP"
result = "≤ 0.2"

[[record]]
mutationspec = "LESA"
result = "≤ 0.2"

[[record]]
mutationspec = "ANEG"
result = "≤ 0.2"

[[record]]
mutationspec = "VNDP"
result = 0.246

[[record]]
mutationspec = "FACF"
result = "≤ 0.2"

[[record]]
mutationspec = "DRTR"
result = "≤ 0.2"

[[record]]
mutationspec = "CVLA"
result = "≤ 0.2"

[[record]]
mutationspec = "RKSG"
result = 0.928

[[record]]
mutationspec = "RYNN"
result = 0.364

[[record]]
mutationspec = "KTLW"
result = "≤ 0.2"

[[record]]
mutationspec = "RYDY"
result = 0.422

[[record]]
mutationspec = "VFSG"
result = "≤ 0.2"

[[record]]
mutationspec = "EVML"
result = "≤ 0.2"

[[record]]
mutationspec = "RVYD"
result = 0.216

[[record]]
mutationspec = "RVCH"
result = "≤ 0.2"

[[record]]
mutationspec = "RNMY"
result = 0.325

[[record]]
mutationspec = "SEHV"
result = "≤ 0.2"

[[record]]
mutationspec = "RNEA"
result = 0.253

[[record]]
mutationspec = "NVDA"
result = "≤ 0.2"

[[record]]
mutationspec = "RFSG"
result = 0.97

[[record]]
mutationspec = "RFLS"
result = 0.997

[[record]]
mutationspec = "QLDE"
result = "≤ 0.2"

[[record]]
mutationspec = "DCPY"
result = "≤ 0.2"

[[record]]
mutationspec = "QNHE"
result = "≤ 0.2"

[[record]]
mutationspec = "RVCS"
result = 1.03

[[record]]
mutationspec = "RNMC"
result = 0.745

[[record]]
mutationspec = "RHSA"
result = 0.515

[[record]]
mutationspec = "RVGA"
result = 0.565

[[record]]
mutationspec = "RFPH"
result = "≤ 0.2"

[[record]]
mutationspec = "RNDG"
result = 0.679

[[record]]
mutationspec = "QGKW"
result = "≤ 0.2"

[[record]]
mutationspec = "RVWS"
result = 1.05

[[record]]
mutationspec = "SFSA"
result = "≤ 0.2"

[[record]]
mutationspec = "RKQG"
result = 0.913

[[record]]
mutationspec = "CKRT"
result = "≤ 0.2"

[[record]]
mutationspec = "TGAE"
result = "≤ 0.2"

[[record]]
mutationspec = "RFYD"
result = "≤ 0.2"

[[record]]
mutationspec = "RNMP"
result = "≤ 0.2"

[[record]]
mutationspec = "RFPS"
result = 0.551

[[record]]
mutationspec = "DGLW"
result = "≤ 0.2"

[[record]]
mutationspec = "RNDK"
result = "≤ 0.2"

[[record]]
mutationspec = "RYDQ"
result = 0.223

[[record]]
mutationspec = "VVST"
result = "≤ 0.2"

[[record]]
mutationspec = "RVRD"
result = "≤ 0.2"

[[record]]
mutationspec = "YEKG"
result = "≤ 0.2"

[[record]]
mutationspec = "RNDM"
result = "≤ 0.2"

[[record]]
mutationspec = "RKSK"
result = "≤ 0.2"

[[record]]
mutationspec = "NFSG"
result = "≤ 0.2"

[[record]]
mutationspec = "GFDT"
result = "≤ 0.2"

[[record]]
mutationspec = "RFPD"
result = "≤ 0.2"

[[record]]
mutationspec = "GPKW"
result = "≤ 0.2"

[[record]]
mutationspec = "ESFC"
result = "≤ 0.2"

[[record]]
mutationspec = "CHSG"
result = "≤ 0.2"

[[record]]
mutationspec = "RVRS"
result = 0.895

[[record]]
mutationspec = "VWVK"
result = "≤ 0.2"

[[record]]
mutationspec = "RMSK"
result = "≤ 0.2"

[[record]]
mutationspec = "RNMT"
result = 0.678

[[record]]
mutationspec = "RYNP"
result = "≤ 0.2"

[[record]]
mutationspec = "QILY"
result = "≤ 0.2"

[[record]]
mutationspec = "VPDS"
result = "≤ 0.2"

[[record]]
mutationspec = "QTRR"
result = "≤ 0.2"

[[record]]
mutationspec = "NVRA"
result = "≤ 0.2"

[[record]]
mutationspec = "MKPK"
result = "≤ 0.2"

[[record]]
mutationspec = "HRMC"
result = 0.225

[[record]]
mutationspec = "RYNC"
result = 0.86

[[record]]
mutationspec = "RKGP"
result = "≤ 0.2"

[[record]]
mutationspec = "QMYE"
result = "≤ 0.2"

[[record]]
mutationspec = "RVLA"
result = 0.565

[[record]]
mutationspec = "AHSN"
result = "≤ 0.2"

[[record]]
mutationspec = "RKQR"
result = "≤ 0.2"

[[record]]
mutationspec = "NVLA"
result = "≤ 0.2"

[[record]]
mutationspec = "LLDM"
result = "≤ 0.2"

[[record]]
mutationspec = "RNMG"
result = 0.819

[[record]]
mutationspec = "PVGA"
result = "≤ 0.2"

[[record]]
mutationspec = "KCHS"
result = "≤ 0.2"

[[record]]
mutationspec = "RFRD"
result = "≤ 0.2"

[[record]]
mutationspec = "DKSV"
result = "≤ 0.2"

[[record]]
mutationspec = "RVDA"
result = 0.556

